Measured Activity of individual entries
# target of assay: Protein cereblon/Androgen receptor (Homo sapiens, UniProt P10275+Q96SW2)
# Sequence (P10275 whole entry, looked up): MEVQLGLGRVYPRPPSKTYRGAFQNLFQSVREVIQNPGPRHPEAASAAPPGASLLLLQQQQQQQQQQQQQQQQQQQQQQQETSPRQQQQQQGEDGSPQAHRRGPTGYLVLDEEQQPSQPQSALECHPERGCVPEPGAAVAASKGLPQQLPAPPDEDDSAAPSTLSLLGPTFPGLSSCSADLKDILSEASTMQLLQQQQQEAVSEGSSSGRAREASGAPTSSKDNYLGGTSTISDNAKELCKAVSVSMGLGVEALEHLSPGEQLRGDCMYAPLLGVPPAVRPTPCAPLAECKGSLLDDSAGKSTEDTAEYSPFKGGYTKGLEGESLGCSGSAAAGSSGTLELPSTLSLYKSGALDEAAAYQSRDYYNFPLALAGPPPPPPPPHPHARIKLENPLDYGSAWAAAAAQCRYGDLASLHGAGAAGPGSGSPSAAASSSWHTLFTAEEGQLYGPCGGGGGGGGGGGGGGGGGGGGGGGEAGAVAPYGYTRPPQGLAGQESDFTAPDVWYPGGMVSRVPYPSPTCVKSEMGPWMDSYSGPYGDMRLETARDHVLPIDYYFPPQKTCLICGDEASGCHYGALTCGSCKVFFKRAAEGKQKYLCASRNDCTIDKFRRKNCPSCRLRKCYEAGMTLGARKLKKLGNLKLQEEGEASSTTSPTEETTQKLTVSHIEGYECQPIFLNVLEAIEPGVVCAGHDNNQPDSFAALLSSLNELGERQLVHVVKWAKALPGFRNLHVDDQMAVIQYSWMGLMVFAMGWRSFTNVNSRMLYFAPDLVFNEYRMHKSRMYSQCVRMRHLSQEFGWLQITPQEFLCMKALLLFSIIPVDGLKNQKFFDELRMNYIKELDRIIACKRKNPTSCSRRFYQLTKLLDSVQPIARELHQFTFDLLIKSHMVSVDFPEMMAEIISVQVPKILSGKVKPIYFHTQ
# Sequence (Q96SW2 whole entry, looked up): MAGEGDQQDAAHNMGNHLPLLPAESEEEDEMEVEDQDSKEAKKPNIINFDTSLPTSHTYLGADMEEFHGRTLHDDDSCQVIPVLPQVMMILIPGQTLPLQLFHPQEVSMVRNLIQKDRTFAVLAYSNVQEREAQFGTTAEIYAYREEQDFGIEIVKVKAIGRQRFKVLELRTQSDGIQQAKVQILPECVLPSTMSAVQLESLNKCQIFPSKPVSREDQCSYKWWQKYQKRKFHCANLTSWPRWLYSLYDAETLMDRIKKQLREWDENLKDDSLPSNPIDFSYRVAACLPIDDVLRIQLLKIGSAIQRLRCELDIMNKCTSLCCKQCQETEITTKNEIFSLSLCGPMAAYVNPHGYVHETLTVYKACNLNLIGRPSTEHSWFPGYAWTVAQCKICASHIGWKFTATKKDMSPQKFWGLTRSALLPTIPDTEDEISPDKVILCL
# experiment: PROTAC activity at full length Androgen receptor/CRBN in human 22Rv1 cells assessed as induction of full length Androgen receptor degradation at 5 uM incubated for 24 hrs by Western blot analysis relative to control
# Format: cell-based

Query (compound): CC(C)(c1ccc(OCCCCCCNc2ccc3c(c2)C(=O)N(C2CCC(=O)NC2=O)C3=O)cc1)c1ccc(OCC(O)CCl)cc1 (stereo not drawn) ; field requested: Activity
< 10%

Next:
# input compound: CC(C)(c1ccc(OCC(=O)N2CCC(N3CCN(c4ccc5c(c4)C(=O)N(C4CCC(=O)NC4=O)C5=O)CC3)CC2)cc1)c1ccc(OCC(O)CCl)cc1 (stereo not drawn) ; wanted: its Activity
< 10%

Further, for CC(C)(c1ccc(OCc2cccc(N3CCOCC3)n2)cc1)c1ccc(OCC2CCN(c3cccc4c3C(=O)N(C3CCC(=O)NC3=O)C4=O)CC2)cc1 (stereo not drawn) ?
< 10%
